Where these numbers come from: PubChem BioAssay

# Test Details: HCT116 colon cancer cell growth inhibition, primary screen, CellTiter-Glo luminescence, NPC library (AID 1117342)
# Condition Summary: at 20 µM (top of the series)
Activity calls are given as the source filed them.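 The calls were made as follows: active = compounds that lower survival of HCT116 colon cancer cells in the luminescence readout, no numeric limit stated; inactive = the rest.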
Write down the outcome that applies. Available outcomes: active, inactive

Examples with answers:
Name the outcome recorded for "Cc1noc(NS(=O)(=O)c2ccc(N)cc2)c1C" in the assay. inactive

Name the outcome recorded for "CN[C@H]1CC[C@@H](c2ccc(Cl)c(Cl)c2)c2ccccc21" in the assay. active

Name the outcome recorded for "C#C[C@]1(O)CC[C@@H]2[C@@H]3CCC4=CCCC[C@@H]4[C@H]3C(=C)C[C@@]21CC" in the assay. active

Continuing:
Name the outcome recorded for "CC(C)=CCOc1ccc(/C=C/C(=O)c2ccc(OCC=C(C)C)cc2OCC(=O)O)cc1" in the assay. active

Name the outcome recorded for "CCCCOC(=O)CCCCCCCCC(=O)OCCCC" in the assay. inactive

Name the outcome recorded for CCCCC/C=C\C/C=C\CCCCCCCC(=O)NC(C)c1ccccc1 (stereo unspecified) in the assay. active
